Value source: patent US11129835B2

target: UniProt Q13526
Sequence (Q13526 whole entry): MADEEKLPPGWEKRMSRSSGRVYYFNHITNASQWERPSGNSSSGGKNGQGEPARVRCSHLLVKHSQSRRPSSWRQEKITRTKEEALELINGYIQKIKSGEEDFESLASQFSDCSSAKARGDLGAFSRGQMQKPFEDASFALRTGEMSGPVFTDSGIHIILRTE
assayExplanation: Pin1 fluorescence polarization competition assay, primary qHTS (HiFluor-488 / Alexa488 probe);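 also: Pin1 protein with fluorescent peptide probe, compound displacement read by fluorescence polarization, percent inhibition derived from corrected polarization values, concentration-response curves in 1536-well format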
protocolConditions: primary qHTS
measuredMetric: Alexa488 Primary Curve Class

Example entries and their recorded answers appear below.
Q: Fill in the recorded Alexa488 Primary Curve Class for this compound, with UniProt Q13526 as test system: O=C(O)CCCNC(=O)/C=C/c1ccco1
Result: 1.2 (≤80% (class 1.2))

Q: Fill in the recorded Alexa488 Primary Curve Class for this compound, with UniProt Q13526 as test system: Cc1oc(-c2ccc3c(c2)OCCO3)cc1C(=O)NC(Cc1ccccc1)C(=O)O (stereo not drawn)
Result: 1.2 (≤80% (class 1.2))

Q: Fill in the recorded Alexa488 Primary Curve Class for this compound, with UniProt Q13526 as test system: COc1ccc(C(=O)c2no[n+]([O-])c2C(=O)c2ccc(OC)cc2)cc1
Result: 1.2 (≤80% (class 1.2))

Further cases:
Q: Fill in the recorded Alexa488 Primary Curve Class for this compound, with UniProt Q13526 as test system: O=C(O)C1Nc2c(C(F)(F)F)ccc(Cl)c2C2C=CCC12 (stereo not drawn)
Result: 2.2 (≤80% (class 2.2))

Q: Fill in the recorded Alexa488 Primary Curve Class for this compound, with UniProt Q13526 as test system: Cc1ccc(C)c2c1NC(C(=O)O)C1CC=CC21 (stereo not drawn)
Result: 1.2 (≤80% (class 1.2))

Q: Fill in the recorded Alexa488 Primary Curve Class for this compound, with UniProt Q13526 as test system: CC(C)COc1ccc(C(=O)N/C(=C\c2cccc([N+](=O)[O-])c2)C(=O)O)cc1
Result: 1.2 (≤80% (class 1.2))

Q: Fill in the recorded Alexa488 Primary Curve Class for this compound, with UniProt Q13526 as test system: COc1ccccc1Nc1ccc2c(O)cc(S(=O)(=O)O)cc2c1
Result: 1.2 (≤80% (class 1.2))

Q: Fill in the recorded Alexa488 Primary Curve Class for this compound, with UniProt Q13526 as test system: COc1cc(C(c2c(C(=O)O)[nH]c3ccccc23)c2c(C(=O)O)[nH]c3ccccc23)ccc1OCc1ccccc1
Result: 1.2 (≤80% (class 1.2))

Q: Fill in the recorded Alexa488 Primary Curve Class for this compound, with UniProt Q13526 as test system: COc1ccc(NC(=O)CN(C)C(O)c2cc(-c3ccco3)nc3ccccc23)cc1 (stereo not drawn)
Result: 2.2 (≤80% (class 2.2))
